Source of measurements: ChEMBL document CHEMBL4184280

# TEST_SYSTEM: Nicotinamide N-methyltransferase (Mus musculus)
# Sequence (O55239 whole entry): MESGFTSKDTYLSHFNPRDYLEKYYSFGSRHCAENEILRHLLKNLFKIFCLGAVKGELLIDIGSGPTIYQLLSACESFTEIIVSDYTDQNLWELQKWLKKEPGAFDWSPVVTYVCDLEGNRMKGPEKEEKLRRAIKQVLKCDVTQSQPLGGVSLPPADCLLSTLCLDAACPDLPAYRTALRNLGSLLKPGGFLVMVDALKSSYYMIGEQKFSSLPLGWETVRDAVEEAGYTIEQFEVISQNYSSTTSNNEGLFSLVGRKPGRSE
# ASSAY_DETAILS: Inhibition of mouse NNMT at 30 uM preincubated for 30 mins followed by nicotinamide substrate and SAM addition measured after 60 mins by fluorescence assay
METRIC: IC50 (µM)
API: value field is a number in µM; no unit string.

State its IC50 for this molecule: `CNc1ccc(C(N)=O)cn1`
4.5
